experiment: Single ascending oral dose study in healthy volunteers: plasma pharmacokinetics; assay type: in vivo, human; settings: human, plasma, oral, 525 mg; read-out: Mean Residence Time, Median
outcome measure: MRT (h)
# number only, unit h dropped from output

Query: Endpoint output: MRT of `Cn1cc(S(=O)(=O)[C@@](C)(F)C2CCN(C(=O)Nc3ccon3)CC2)c(C(F)F)n1` . Value?
Response: 25

* * *

assay: Unbound (free) fraction in plasma; format: in vitro ADME; details: human, Human plasma, 0.1 to 10 μM, read-out: fup (Human), unbound fraction in plasma
outcome measure: fraction unbound

Query: State the recorded fraction unbound for this entry: `Cn1cc(S(=O)(=O)[C@@](C)(F)C2CCN(C(=O)Nc3ccon3)CC2)c(C(F)F)n1`
Response: 0.144 to 0.164
